- SYSTEM TESTED: T1, human IL13 (human, UniProt P35225 35-146, biotinylated in the SPR assays (sites not given))
- T1 construct: Peprotech; also called hIL13; recombinant human IL13
- T1 sequence (P35225 other isoform, or with tags, fused parts or gaps limits assumed): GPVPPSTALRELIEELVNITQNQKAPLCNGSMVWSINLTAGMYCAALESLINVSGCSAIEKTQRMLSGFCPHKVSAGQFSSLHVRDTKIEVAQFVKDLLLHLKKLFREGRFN
- PROTOCOL TEXT: SPR ProteOn, biotin-hIL13 on streptavidin, 1:1 global fit
# key: entry, value: Kd

{"columns": ["BINDER", "Kd"],
 "data": [
  ["9F8r3 (designed binder, optimized 9F8; expressed without HIS tag) GLDKKLLEAARAGQDDEVRILMANGADVNASDIFGSTPLHLAARHGHLEIVEVLLKYGADVNAFDFIGDTPLHLAAYRGHLEIVEVLLKYGVDVNADDHGDTPLHLAAQIGHLEIVEVLLKHGADVNAQDKFGKTAFDISIDNGNEDLAEILQKAA", "0.0656 nM"],
  ["7G11 (designed binder, ankyrin repeat protein) DLGKKLLEAARAGQDDEVRILMANGADVNATDEFDSTPLHLAARHGHLEIVEVLLKYGADVNAADFIGDTPLHLAAYRGHLEIVEVLLKCGVDVNADDHGDTPLHLAASMGHLEIVEVLLKNGADVNAQDKFGKTAFDISIDNGNEDLAEILQKLN", "0.0168 nM"],
  ["9F8 (designed binder, ankyrin repeat protein) DLGKKLLEAARAGQDDEVRILMANGADVNASDIFGSTPLHLAARHGHLEIVEVLLKYGADVNAMDFIGDTPLHLAAYRGHLEIVEVLLKYGVDVNADDHGDTPLHLAASMGHLEIVEVLLKNGADVNAQDKFGKTAFDISIDNGNEDLAEILQKLN", "0.00164 nM"],
  ["IL13 binding protein 6G9 (designed binder) DLGKKLLEAARAGQDDEVRILMANGADVNARDSYGSTPLHLAAREGHLEIVEVLLKYGADVNAKDMIGDTPLHLAAYRGHLEIVEVLLKNGADVNASDITGETPLHLAAQIGHLEIVEVLLKYGADVNAQDKFGKTAFDISIDNGNEDLAEILQKLN", "0.0249 nM"],
  ["7G11r7 (designed binder, optimized 7G11; expressed without HIS tag) GLDKKLLEAARAGQDDEVRILMANGADVNATDEFDSTPLHLAARHGHLEIVEVLLKYGADVNAADFIGDTPLHLAAYRGHLEIVEVLLKYGVDVNADDHGDTPLHLAASTGHLEIVEVLLKHGADVNAQDKFGKTAFDISIDNGNEDLAEILQKAA", "0.0242 nM"],
  ["6G9r13 (designed binder, optimized 6G9; expressed without HIS tag) ALDKKLLEAARAGQDDEVRILMANGADVNARDSYGSTPLHLAAREGHLEIVEVLLKYGADVNAADFIGDTPLHLAAYRGHLEIVEVLLKYGADVNASDITGETPLHLAAQIGHLEIVEVLLKHGADVNAQDKFGKTAFDISIDNGNEDLAEILQKAA", "0.0251 nM"]
]}
